system: Streptococcus pneumoniae; experiment: In vitro minimum inhibitory concentration against Streptococcus pneumoniae UC41; type: functional
Measured endpoint: MIC (µg/mL)
Answer in µg/mL, number only, no unit symbol.

Task: Tell me its MIC given "CC(=O)N[C@@H]1[C@H](O[C@@H]2c3ccc(c(Cl)c3)Oc3cc4cc(c3O)Oc3ccc(cc3Cl)C[C@H]3NC(=O)[C@H](N)c5ccc(O)c(c5)Oc5cc(O)cc(c5)[C@H](NC3=O)C(=O)N[C@H]4C(=O)N[C@H]3C(=O)N[C@@H]2C(=O)N[C@H](C(=O)NCCCN(C)C)c2cc(O)cc(O[C@H]4O[C@H](CO)[C@@H](O)[C@@H](O)[C@@H]4O)c2-c2cc3ccc2O)O[C@@H](CO)[C@@H](O)[C@@H]1O" as the entry.
Result: 0.5

Task: Tell me its MIC given "CCN(CC)CCCNC(=O)[C@H]1NC(=O)[C@H]2NC(=O)[C@H](NC(=O)[C@@H]3NC(=O)[C@H]4NC(=O)[C@@H](Cc5ccc(c(Cl)c5)Oc5cc3cc(c5O)Oc3ccc(cc3Cl)[C@H]2O[C@@H]2O[C@@H](CO)[C@@H](O)[C@H](O)[C@@H]2NC(C)=O)NC(=O)[C@H](N)c2ccc(O)c(c2)Oc2cc(O)cc4c2)c2ccc(O)c(c2)-c2c(O)cc(O)cc21" as the entry.
Result: 0.5

Task: Tell me its MIC given "CC(=O)N[C@@H]1[C@H](O[C@@H]2c3ccc(c(Cl)c3)Oc3cc4cc(c3O[C@@H]3O[C@@H](CO)[C@@H](O)[C@H](O)[C@@H]3NC(=O)CCCCCCC(C)C)Oc3ccc(cc3Cl)C[C@H]3NC(=O)[C@H](N)c5ccc(O)c(c5)Oc5cc(O)cc(c5)[C@H](NC3=O)C(=O)N[C@H]4C(=O)N[C@H]3C(=O)N[C@@H]2C(=O)N[C@H](C(=O)NCCN2CCOCC2)c2cc(O)cc(O[C@H]4O[C@H](CO)[C@@H](O)[C@@H](O)[C@@H]4O)c2-c2cc3ccc2O)O[C@@H](CO)[C@@H](O)[C@@H]1O" as the entry.
Result: 0.12

Task: Tell me its MIC given "CC(=O)N[C@@H]1[C@H](O[C@@H]2c3ccc(c(Cl)c3)Oc3cc4cc(c3O[C@@H]3O[C@@H](CO)[C@@H](O)[C@H](O)[C@@H]3NC(=O)CCCCCCC(C)C)Oc3ccc(cc3Cl)C[C@H]3NC(=O)[C@H](N)c5ccc(O)c(c5)Oc5cc(O)cc(c5)[C@H](NC3=O)C(=O)N[C@H]4C(=O)N[C@H]3C(=O)N[C@@H]2C(=O)N[C@H](C(=O)NCCN2CCCC2)c2cc(O)cc(O[C@H]4O[C@H](CO)[C@@H](O)[C@@H](O)[C@@H]4O)c2-c2cc3ccc2O)O[C@@H](CO)[C@@H](O)[C@@H]1O" as the entry.
Result: 0.12

Task: Tell me its MIC given CC(=O)NC1C(O[C@@H]2c3ccc(c(Cl)c3)Oc3cc4cc(c3O)Oc3ccc(cc3Cl)C[C@H]3NC(=O)[C@H](N)c5ccc(O)c(c5)Oc5cc(O)cc(c5)[C@H](NC3=O)C(=O)N[C@H]4C(=O)N[C@H]3C(=O)N[C@@H]2C(=O)N[C@H](C(=O)NCCN2CCOCC2)c2cc(O)cc(O)c2-c2cc3ccc2O)OC(CO)C(O)C1O (stereo not given in full) as the entry.
Result: 1
